assay: NCI Yeast Anticancer Drug Screen. Data for the sgs1 mgt1 strain (AID 161); conditions: S. cerevisiae sgs1 mgt1 strain, at 50.0 µM (retest, dose inferred, filed as 5.0), hits give high values
Compounds without any hit were thinned out: in the full panel of roughly 79,000, 15% have a hit.
Outcome: yes for growth inhibition of at least 90%; no for anything lower.

Here are 2 molecules together with their reported answers.
C=CC(=O)NC(=O)Nc1ccc(Cl)cc1 ... yes
O=C(c1ccc([N+](=O)[O-])cc1)N1CCCSC1=S ... no

## Input hey, is growth inhibition for this one >= 90%? CCCCCCCCCCCCCCSC(=NC)NC
## Output yes

## Input Now the molecule [NH-]c1ccccc1[S-].[NH-]c1ccccc1[S-].[Zn]
## Output yes

## Input Note, next up: Cc1ccc(N=C=C(c2ccccc2)c2ccccc2)cc1
## Output no

## Input Query CNC(=O)N/N=C/c1ccc([N+](=O)[O-])o1 next
## Output no

## Input Also COc1cc(C2SC(N)=Nc3c2c(C)nn3C(=O)c2ccccc2O)cc(OC)c1OC (stereo not given) ?
## Output no

## Input Note, next up: N#CC1=CN=C2C=CC=C3N=C(C(Cl)(Cl)Cl)N=C1N32
## Output yes

## Input Try the molecule Cc1ccc(O)c2c(NCCCCCCNc3cc(C)[n+](C)c4c(C)ccc(O)c34)cc(C)[n+](C)c12
## Output no

## Input Proceed to Cc1ccc(C(=Nc2ccccc2)N=P(c2ccccc2)(c2ccccc2)c2ccccc2)cc1
## Output yes

## Input Would you kindly repeat that for CC(=O)C(=Cc1ccc(C=C(C(C)=O)C(C)=O)cc1)C(C)=O ?
## Output no

## Input Then CC1=NC(C)=C(/C(C)=N/NC(=O)c2ccccc2O)C(C)/C1=C(/C)NNC(=O)c1ccccc1O (stereo not given) ?
## Output no

## Input Please do the same for CN(C)C(=S)/N=c1\ss/c(=N/C(=S)N(C)C)n1-c1ccc([N+](=O)[O-])cc1 as well.
## Output no

## Input What about Cc1ccc(S(=O)(=O)N(c2ccccc2-c2ccccc2)C(C)C(=O)O)cc1 (stereo not given) ?
## Output no
